assayed-system: PDGFRα (Homo sapiens)
Construct: purchased Millipore 14-467 (lot 26321_ACTI)
Sequence (P16234 24-1089): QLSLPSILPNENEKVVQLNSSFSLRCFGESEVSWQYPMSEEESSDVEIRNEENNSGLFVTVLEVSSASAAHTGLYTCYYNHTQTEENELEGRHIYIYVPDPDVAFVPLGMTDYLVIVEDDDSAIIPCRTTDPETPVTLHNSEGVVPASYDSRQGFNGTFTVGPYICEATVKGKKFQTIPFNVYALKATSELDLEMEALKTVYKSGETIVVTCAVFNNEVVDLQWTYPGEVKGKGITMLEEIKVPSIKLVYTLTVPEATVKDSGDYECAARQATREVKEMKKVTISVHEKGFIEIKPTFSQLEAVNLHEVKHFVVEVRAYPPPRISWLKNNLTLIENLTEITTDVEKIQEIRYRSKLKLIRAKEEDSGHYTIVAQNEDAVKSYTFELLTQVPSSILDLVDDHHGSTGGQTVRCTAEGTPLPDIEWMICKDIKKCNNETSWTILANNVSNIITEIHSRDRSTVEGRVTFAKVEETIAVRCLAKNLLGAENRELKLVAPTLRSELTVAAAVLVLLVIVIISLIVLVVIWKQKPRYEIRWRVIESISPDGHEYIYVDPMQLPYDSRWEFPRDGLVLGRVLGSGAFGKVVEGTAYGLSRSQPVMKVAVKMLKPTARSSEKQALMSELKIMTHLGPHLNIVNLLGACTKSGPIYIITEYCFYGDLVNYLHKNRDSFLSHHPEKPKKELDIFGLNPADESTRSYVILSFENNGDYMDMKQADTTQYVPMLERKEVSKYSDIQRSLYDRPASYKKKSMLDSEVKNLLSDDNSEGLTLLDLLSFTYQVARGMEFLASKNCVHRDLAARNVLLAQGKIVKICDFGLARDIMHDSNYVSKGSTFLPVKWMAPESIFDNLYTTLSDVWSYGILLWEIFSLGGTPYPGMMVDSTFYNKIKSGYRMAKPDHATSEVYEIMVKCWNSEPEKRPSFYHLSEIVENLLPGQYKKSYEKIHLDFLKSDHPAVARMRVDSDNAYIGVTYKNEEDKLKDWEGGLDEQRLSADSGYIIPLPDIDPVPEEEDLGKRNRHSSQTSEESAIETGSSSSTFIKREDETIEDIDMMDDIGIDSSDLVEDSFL
run-description: Caliper biochemical assay, PDGFRα
condition-context: Table 6
Give IC50 for every item shown.

Sample records with IC50:
Cc1ccc(-c2noc([C@H]3C[C@@H]3F)n2)cc1NC(=O)c1cnc2cc(COCC(C)(C)O)ccn12 :: 0.5 to 5 µM
COC(=O)N1CC(c2nc(-c3ccc(C)c(NC(=O)c4cnc5cc(OCC(C)(C)O)ccn45)c3)no2)C1 :: 0.05 to 0.5 µM
Cc1ccc(-c2noc([C@H]3C[C@@H]3F)n2)cc1NC(=O)c1cnc2cc(OC(C)C)ccn12 :: 0.05 to 0.5 µM

From here, focus on the item given below.
Q: Provide measured IC50 on PDGFRα (Homo sapiens) for Cc1nc(-c2ccc(C)c(NC(=O)c3cnc4ccccn34)c2)no1 please.
A: 0.5 to 5 µM
